This listing pairs compounds with measured pIC50.
Target: HDAC-1 (Homo sapiens, UniProt Q13547)
Sequence (Q13547 whole entry, species assumed): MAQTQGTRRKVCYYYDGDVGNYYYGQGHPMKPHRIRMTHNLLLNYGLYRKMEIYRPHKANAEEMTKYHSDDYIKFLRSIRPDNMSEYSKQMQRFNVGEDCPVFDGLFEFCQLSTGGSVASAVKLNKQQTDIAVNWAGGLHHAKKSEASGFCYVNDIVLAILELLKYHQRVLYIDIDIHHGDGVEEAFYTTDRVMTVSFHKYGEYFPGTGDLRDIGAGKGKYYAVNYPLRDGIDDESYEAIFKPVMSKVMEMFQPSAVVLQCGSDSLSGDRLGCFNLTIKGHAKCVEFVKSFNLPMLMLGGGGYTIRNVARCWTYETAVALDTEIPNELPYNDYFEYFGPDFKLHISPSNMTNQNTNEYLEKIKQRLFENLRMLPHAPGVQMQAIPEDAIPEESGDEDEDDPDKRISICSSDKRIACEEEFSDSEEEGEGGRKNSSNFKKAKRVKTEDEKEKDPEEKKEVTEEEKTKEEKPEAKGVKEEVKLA
pIC50: −log10 of the molar value.
Endpoint Label: pIC50

- Cc1[nH]c2ccccc2c1CC(=O)N1CCCC1c1ccc(/C=C/C(=O)NO)cc1 (centres unmarked) [Compound 12]: 8.40
- CC(C)CCN1CCCC1c1ccc(/C=C/C(=O)NO)cc1 (centres unmarked) [Compound 36]: 8.00
- Cc1nn2ccccc2c1CCN1CCC[C@@H]1c1ccc(/C=C/C(=O)NO)cc1 [Compound 45]: 8.62
- CCc1nn2ccccc2c1CCN1CCC[C@H]1c1ccc(/C=C/C(=O)NO)cc1 [Compound 47]: 9.00
- Cc1[nH]c2ccccc2c1CCN1CCCC1c1ccc(/C=C/C(=O)NO)cc1 (centres unmarked) [Compound 1]: 8.52
- O=C(/C=C/c1ccc([C@@H]2CCCN2CCc2c(-c3cnccn3)nn3ccccc23)cc1)NO [Compound 49]: 8.52
- O=C(/C=C/c1ccc([C@@H]2CCCN2CCc2ccc(Cl)cc2)cc1)NO [Compound 22]: 8.15
- Cn1nnc(CCN2CCC[C@H]2c2ccc(/C=C/C(=O)NO)cc2)n1 [Compound 81]: 7.17

---

Target: HDAC-1 (Homo sapiens, UniProt Q13547)
Endpoint Label: IC50 (nM)

• O=C(/C=C/c1ccc(C2CCCN2CCc2ccc([N+](=O)[O-])cc2)cc1)NO (centres unmarked) [Compound 24] = 8
• O=C(/C=C/c1ccc([C@@H]2CCCN2CCC2CCOCC2)cc1)NO [Compound 42] = 32
• Cc1noc(-c2ccccc2)c1CCN1CCC[C@H]1c1ccc(/C=C/C(=O)NO)cc1 [Compound 56] = 1.7
• O=C(/C=C/c1ccc([C@@H]2CCCN2CCc2c[nH]c3ncccc23)cc1)NO [Compound 51] = 1.2
• O=C(/C=C/c1ccc([C@@H]2CCCN2CCc2cnn3ccccc23)c(F)c1)NO [Compound 91] = 4
• CN1CCN(CCc2cnn3ccccc23)C(c2ccc(/C=C/C(=O)NO)cc2)C1 (centres unmarked) [Compound 90] = 8
• CC(C)(C)c1[nH]nnc1CCN1CCC[C@H]1c1ccc(/C=C/C(=O)NO)cc1 [Compound 108] = 7
• O=C(/C=C/c1ccc(C2CCCN2CCc2c[nH]c3ccccc23)cc1)NO (centres unmarked) [Compound 3] = 1
• O=C(/C=C/c1ccc([C@@H]2CCCN2CCn2ccc(C(F)(F)F)n2)cc1)NO [Compound 73] = 71
• O=C(/C=C/c1cc(F)c([C@@H]2CCCN2CCc2cnn3ccccc23)c(F)c1)NO [Compound 94] = 1.4
• CC(C)n1nnnc1CCN1CCC[C@H]1c1ccc(CCC(=O)NO)cc1 [Compound 115] = 25
• Cc1n[nH]c(C)c1CCN1CCC[C@H]1c1ccc(CCC(=O)NO)cc1 [Compound 119] = 155
• CC(C)(O)c1nn2ccccc2c1CCN1CCC[C@@H]1c1ccc(CCC(=O)NO)cc1 [Compound 120] = 75
• CC(C)n1nnc(CCN2CCC[C@H]2c2ccc(/C=C/C(=O)NO)cc2)n1 [Compound 101] = 58
• Cc1cc2ccccc2n1CCN1CCCC1c1ccc(/C=C/C(=O)NO)cc1 (centres unmarked) [Compound 4] = 10
• CC(C)n1nnnc1CCN1CCC[C@H]1c1ccc(/C=C/C(=O)NO)cc1 [Compound 102] = 25
• O=C(/C=C/c1ccc([C@@H]2CCCN2CCc2cnn3ccccc23)cc1F)NO [Compound 93] = 1.4
